System: HIV wild type (WTRVA)
Protocol notes: HeLa cell assay, wild type virus (WTRVA)
Format: cell-based, HIV-1
Parameters: scale not given here
Stated conditions: Human immunodeficiency virus 1, HeLa, HeLa-CD4-LTR-β-gal cells, wild type virus; read-out: WTRVA activity level
Where a name gives a salt, the structure may show the parent alone.
Readout label: IC50

Output IC50 of N#Cc1cc(Cl)cc(Oc2c(Cl)ccc(CNC(=O)c3cc4ccc(N)cc4[nH]3)c2F)c1 [Example 123, trifluoroacetate]
< 10 nM

Read off the recorded IC50 for N#Cc1cc(Cl)cc(Oc2c(Cl)ccc(CNC(=O)c3cc4cc(NC(=O)c5ccncc5)ccc4[nH]3)c2F)c1
< 10 nM

Give recorded IC50. CCN(CC)S(=O)(=O)c1c[nH]c(C(=O)NCc2ccc(Cl)c(Oc3cc(Cl)cc(C#N)c3)c2F)c1 [Example 76, trifluoroacetate]
10 to 1000 nM

Fill in reported IC50 for this entry: N#Cc1cc(Cl)cc(Oc2c(Cl)ccc(CNC(=O)c3[nH]c4cc(OCCO)ccc4c3Br)c2F)c1
< 10 nM

Please look at this compound and report its IC50: N#Cc1cc(Cl)cc(Oc2c(Cl)ccc(CNC(=O)c3cnccn3)c2F)c1 [Example 87, trifluoroacetate]
< 10 nM

Annotate the compound COc1ccc(C(=O)NCc2ccc(Cl)c(Oc3cc(Cl)cc(C#N)c3)c2F)cn1 with its measured IC50.
10 to 1000 nM

Recall and state the measured IC50 for N#Cc1cc(Cl)cc(Oc2c(Cl)ccc(CNC(=O)c3[nH]cnc3[N+](=O)[O-])c2F)c1 [Example 68, trifluoroacetate] .
< 10 nM

Answer with the recorded IC50 of Cc1c(C(=O)NCc2ccc(Cl)c(Oc3cc(Cl)cc(C#N)c3)c2F)[nH]c2ccc(Cl)cc12 only.
10 to 1000 nM

Tell me measured IC50 for Cc1nc2ccccn2c1C(=O)NCc1ccc(Cl)c(Oc2cc(Cl)cc(C#N)c2)c1F [Example 97, trifluoroacetate] please.
< 10 nM

Identify the reported IC50 for the following entry. CC(O)CCOc1ccc2[nH]c(C(=O)NCc3ccc(Cl)c(Oc4cc(Cl)cc(C#N)c4)c3F)cc2c1 (stereo not drawn)
< 10 nM

Quickly give me recorded IC50 for N#Cc1cc(Cl)cc(Oc2c(Cl)ccc(CNC(=O)c3cc4cc(Cl)ccc4[nH]3)c2F)c1
10 to 1000 nM

Could you please provide reported IC50 for COc1ccc2c(C(=O)NCc3ccc(Cl)c(Oc4cc(Cl)cc(C#N)c4)c3F)c[nH]c2c1 ? Thanks!
10 to 1000 nM

###

Please provide measured IC50 for the entries that follow.
Tested on: HIV wild type (WTRVA)
Protocol notes: HeLa cell assay, wild type virus (WTRVA)
Format: cell-based, HIV-1
Design: scale not given here
Stated conditions: Human immunodeficiency virus 1, HeLa, HeLa-CD4-LTR-β-gal cells, wild type virus; read-out: WTRVA activity level
Counter-ions that a name gives are not always drawn.

Using known records, supply IC50 for N#Cc1cc(Cl)cc(Oc2c(Cl)ccc(CNC(=O)c3c[nH]cn3)c2F)c1 [Example 84, trifluoroacetate]
< 0.01 µM

Note IC50 for the molecule shown: CS(=O)(=O)c1ccc(C(=O)NCc2ccc(Cl)c(Oc3cc(Cl)cc(C#N)c3)c2F)cc1
0.01 to 1 µM

Dear colleague, please send me the reported IC50 for N#Cc1cc(Cl)cc(Oc2c(Cl)ccc(CNC(=O)c3[nH]c(C4CC4)nc3Cl)c2F)c1 [Example 136, trifluoroacetate] when you can.
< 0.01 µM

Supply measured IC50 of N#Cc1cc(Cl)cc(Oc2c(Cl)ccc(CNC(=O)c3cc4cc(OCC[C@H](O)CO)ccc4[nH]3)c2F)c1 in your reply.
< 0.01 µM

Return IC50 for the following molecule: N#Cc1cc(Cl)cc(Oc2c(Cl)ccc(CNC(=O)c3cc4cc(NC(=O)[C@@H]5CCCN5)ccc4[nH]3)c2F)c1 [Example 118, trifluoroacetate]
< 0.01 µM

Please look at this molecule and report its IC50: N#Cc1cc(Cl)cc(Oc2c(Cl)ccc(CNC(=O)c3[nH]c4cc(Cl)ccc4c3Cl)c2F)c1 [Example 55, trifluoroacetate]
0.01 to 1 µM

Please report IC50 for the following molecule: CS(=O)(=O)c1ccc(C(=O)NCc2ccc(Cl)c(Oc3cc(Cl)cc(C#N)c3)c2)c(Cl)c1
0.01 to 1 µM

// Input: COc1ccc(C(=O)NCc2ccc(Cl)c(Oc3cc(Cl)cc(C#N)c3)c2)c(OC)c1 . Output its IC50 only.
0.01 to 1 µM

Read off the recorded IC50 for N#Cc1cc(Cl)cc(Oc2c(Cl)ccc(CNC(=O)c3nc4ccc([N+](=O)[O-])cc4[nH]3)c2F)c1
0.01 to 1 µM

Please supply the value of reported IC50 for the item CC(=O)c1ccc2cc(C(=O)NCc3ccc(Cl)c(Oc4cc(Cl)cc(C#N)c4)c3F)[nH]c2c1 [Example 78, trifluoroacetate]
< 0.01 µM

Provide measured IC50 value, entry: Cc1nc(Cl)c(C(=O)NCc2ccc(Cl)c(Oc3cc(Cl)cc(C#N)c3)c2F)[nH]1
< 0.01 µM

Name the recorded IC50 of the molecule listed here: Cn1cncc1C(=O)NCc1ccc(Cl)c(Oc2cc(Cl)cc(C#N)c2)c1F [Example 67, trifluoroacetate]
0.01 to 1 µM

Specify IC50 for CN(Cc1ccc(Cl)c(Oc2cc(Cl)cc(C#N)c2)c1F)C(=O)c1ncc[nH]1 and stop.
< 0.01 µM

Could you please provide reported IC50 for COC(=O)c1ccc(C(=O)NCc2ccc(Cl)c(Oc3cc(Cl)cc(C#N)c3)c2F)cc1 ? Thanks!
0.01 to 1 µM

Return the recorded IC50 value; entry: CC(=O)Nc1ccc2cc(C(=O)NCc3ccc(Cl)c(Oc4cc(Cl)cc(C#N)c4)c3F)[nH]c2c1
< 0.01 µM

###

Test system: HIV wild type (WTRVA)
Protocol notes: HeLa cell assay, wild type virus (WTRVA)
Type: cell-based, HIV-1
Design: scale not given here
Stated conditions: Human immunodeficiency virus 1, HeLa, HeLa-CD4-LTR-β-gal cells, wild type virus; read-out: WTRVA activity level
Where a name gives a salt, the structure may show the parent alone.
Readout label: IC50

Identify the reported IC50 for the following entry. N#Cc1cc(Cl)cc(Oc2c(Cl)ccc(CNC(=O)c3cc([N+](=O)[O-])c[nH]3)c2F)c1 [Example 70, trifluoroacetate]
< 0.01 µM

Identify IC50 associated with the compound N#Cc1cc(Cl)cc(Oc2c(Cl)ccc(CNC(=O)c3cc4cc(Br)ccc4[nH]3)c2F)c1 [Example 29]
0.01 to 1 µM

Answer with the recorded IC50 for the compound listed here: N#Cc1cc(Cl)cc(Oc2c(Cl)ccc(CNC(=O)c3ccc(S(N)(=O)=O)cc3Cl)c2F)c1 [Example 14]
0.01 to 1 µM

Given CN(C)CCOc1ccc2[nH]c(C(=O)NCc3ccc(Cl)c(Oc4cc(Cl)cc(C#N)c4)c3F)cc2c1 [Example 105] , respond with its IC50.
< 0.01 µM

###

System: HIV wild type (WTRVA)
Protocol notes: HeLa cell assay, wild type virus (WTRVA)
Assay type: cell-based, HIV-1
Set-up: scale not given here
Stated conditions: Human immunodeficiency virus 1, HeLa, HeLa-CD4-LTR-β-gal cells, wild type virus; read-out: WTRVA activity level
pIC50: −log10 of the molar value. Counter-ions that a name gives are not always drawn.
Can you tell me pIC50 for the items I'm about to list?

System HIV wild type (WTRVA). Read-out pIC50. Item N#Cc1cc(Cl)cc(Oc2c(Cl)ccc(CNC(=O)c3cc4ccc(O)cc4[nH]3)c2F)c1 . Report value.
> 8.00

Tell me pIC50 of COc1n[n+]([O-])cc2cc(C(=O)NCc3ccc(Cl)c(Oc4cc(Cl)cc(C#N)c4)c3F)[nH]c12 [Example 82, trifluoroacetate] when tested on HIV wild type (WTRVA).
6.00 to 8.00

Given N#Cc1cc(Cl)cc(Oc2c(Cl)ccc(CNC(=O)c3n[nH]c([N+](=O)[O-])c3Br)c2F)c1 [Example 69, trifluoroacetate] , report its pIC50 on HIV wild type (WTRVA).
6.00 to 8.00

Provide HIV wild type (WTRVA) pIC50 reading for CNCC(=O)Nc1ccc2[nH]c(C(=O)NCc3ccc(Cl)c(Oc4cc(Cl)cc(C#N)c4)c3F)cc2c1 .
> 8.00

Write down measured pIC50 (HIV wild type (WTRVA)) for this molecule. Cc1nc(Br)c(C(=O)NCc2ccc(Cl)c(Oc3cc(Cl)cc(C#N)c3)c2F)[nH]1
> 8.00

Report measured pIC50 on HIV wild type (WTRVA); entry: CSc1ncc(C(=O)NCc2ccc(Cl)c(Oc3cc(Cl)cc(C#N)c3)c2F)[nH]1 [Example 66, trifluoroacetate]
6.00 to 8.00

State pIC50 on HIV wild type (WTRVA). Entry: N#Cc1cc(Cl)cc(Oc2c(Cl)ccc(CNC(=O)c3cn[nH]c3)c2F)c1 [Example 100, trifluoroacetate]
> 8.00

Fetch value of pIC50 on HIV wild type (WTRVA) for COc1ccc2[nH]c(C(=O)NCc3ccc(Cl)c(Oc4cc(Cl)cc(C#N)c4)c3F)cc2c1 .
6.00 to 8.00

Answer briefly: pIC50 recorded on HIV wild type (WTRVA) for CC(=O)c1ccc2[nH]c(C(=O)NCc3ccc(Cl)c(Oc4cc(Cl)cc(C#N)c4)c3F)cc2c1 [Example 80, trifluoroacetate]
> 8.00

Answer briefly: pIC50 recorded on HIV wild type (WTRVA) for CCCc1nc(Cl)c(C(=O)NCc2ccc(Cl)c(Oc3cc(Cl)cc(C#N)c3)c2F)[nH]1
> 8.00

Would you please give the reported pIC50 of COc1ccc2[nH]c3c(c2c1)CCN(Cc1ccc(Cl)c(Oc2cc(Cl)cc(C#N)c2)c1F)C3=O with HIV wild type (WTRVA)?
6.00 to 8.00

Would you please give the reported pIC50 of N#Cc1cc(Cl)cc(Oc2c(Cl)ccc(CNC(=O)c3cc4cccc(O)c4[nH]3)c2F)c1 with HIV wild type (WTRVA)?
6.00 to 8.00

Give pIC50; test system HIV wild type (WTRVA); molecule N#Cc1cc(Cl)cc(Oc2c(Cl)ccc(CNC(=O)c3cc4cc(F)ccc4[nH]3)c2F)c1
6.00 to 8.00

# return pIC50 for Cn1c(C(=O)NCc2ccc(Cl)c(Oc3cc(Cl)cc(C#N)c3)c2F)cc2ccccc21 , test system: HIV wild type (WTRVA)
6.00 to 8.00

// output pIC50; input COc1ccc2c(C(=O)NCc3ccc(Cl)c(Oc4cc(Cl)cc(C#N)c4)c3)c[nH]c2c1 ; system HIV wild type (WTRVA)
< 6.00

Where do the numbers come from? From patent US8304419B2.
